Cited source for all entries: paper PMC2241890

# TARGET SYSTEM: HU alpha-beta heterodimer (Escherichia coli, UniProt P0ACF0;P0ACF4 1-90;1-90)
# Sequence (P0ACF0 whole entry, chain 1 of 2): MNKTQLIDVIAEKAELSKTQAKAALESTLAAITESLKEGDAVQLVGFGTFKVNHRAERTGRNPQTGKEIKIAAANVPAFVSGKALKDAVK
# Sequence (P0ACF4 whole entry, chain 2 of 2): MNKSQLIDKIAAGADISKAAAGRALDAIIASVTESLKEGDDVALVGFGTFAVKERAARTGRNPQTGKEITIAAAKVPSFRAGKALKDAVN
# TEST DESCRIPTION: EMSA
EXPERIMENTAL READOUT: Kd
Kindly write the number and append the unit.

q: Quick one: Kd of mismatch 4 (dsDNA) DNA 1: AGTCTAGACTGCAGTTGAGTCCTTGCTAGGACGGATCCCT DNA 2: AGGGATCCGTCCTAGCAAATGTTCAACTGCAGTCTAGACT ?
a: 21 nM
